# system: human MCP-1 receptor (Homo sapiens)
# Construct: expressed in transfected cells; host or cells: CHO cells, transformant CHO(MCR); FERM BP-5446; IFO 50461
# Sequence (P41597 whole entry): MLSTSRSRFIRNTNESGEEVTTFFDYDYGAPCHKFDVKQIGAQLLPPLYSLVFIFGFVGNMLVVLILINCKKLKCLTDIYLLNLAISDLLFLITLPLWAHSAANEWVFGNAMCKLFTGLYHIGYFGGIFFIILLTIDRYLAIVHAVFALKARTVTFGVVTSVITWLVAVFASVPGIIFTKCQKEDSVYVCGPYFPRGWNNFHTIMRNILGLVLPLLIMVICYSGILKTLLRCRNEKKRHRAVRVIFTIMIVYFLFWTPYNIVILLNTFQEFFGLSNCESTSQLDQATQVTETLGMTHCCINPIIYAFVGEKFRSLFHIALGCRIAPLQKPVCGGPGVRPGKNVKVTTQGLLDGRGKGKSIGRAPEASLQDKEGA
# protocol: Determination of inhibitory activity on MCP-1 receptor (125I-MCP-1 binding to CHO cells expressing human MCP-1 receptor)
# particulars: Test Compound 1 μM, 125I-human recombinant MCP-1 100 pM, room temperature 40 minutes
parameter: Inhibition Rate (%) against MCP-1 binding to its receptor

{"columns": ["testSmiles", "measureUnit", "recordedMeasurement"],
 "data": [
  ["CCc1ccc(-c2ccc3c(c2)C=C(C(=O)Nc2ccc(CP4(=O)CCCCC4)cc2)CCO3)cc1", "%", 64],
  ["Cc1ccc(-c2ccc3c(c2)C=C(C(=O)Nc2ccc(C[N+](C)(C)C4CCOCC4)cc2)CCC3)cc1", "%", 98],
  ["Cc1ccc(-c2cccc(/C=C/C(=O)Nc3ccc(C[N+]4(C)CCCCC4)cc3)c2)cc1", "%", 77],
  ["Cc1ccc(-c2ccc3c(c2)C=C(C(=O)Nc2ccc(C[N+]4(C)CCCCC4)cc2)CC3)cc1", "%", 89]
]}
